# assay.target: T1, CTLA4 antigen (NCBI Gene ID: 1493) obtained by TEV protease cleavage of CTLA4-mFc (Homo sapiens (Human), UniProt P16410 37-161)
# T1 construct: also called the antigen CTLA4
# T1 sequence: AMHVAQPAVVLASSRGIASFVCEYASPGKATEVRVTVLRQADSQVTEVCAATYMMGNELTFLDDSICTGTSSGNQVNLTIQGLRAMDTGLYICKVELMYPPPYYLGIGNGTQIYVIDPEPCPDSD
# assay.procedure: BLI (Fortebio), antibody on AR2G sensor, CTLA4 in solution
measurement.kind: koff (s⁻¹)
// return numeric value only (unit: s⁻¹, not printed)

| binder | unit.abbreviation | koff |
| --- | --- | --- |
| monoclonal antibody 8D2 (antibody, V domains shown, Murine antibody purified from hybridoma supernatant; also called mAb 8D2; antibody secreted by the CTLA4-8D2 hybridoma cell line LT001) VH: EVKLDETGGGLVQPGRPMKLSCVASGFTFSDNWMNWVRQSPEKGLEWLAQIRNKPYNYETYYSDSVKGRFTISRDDSKSSVYLQMNNLRGEDMGIYYCTAQFAYWGQGTLVTVSA VL: DIQMTQSPASLSASVGETVTITCGTSENIYGGLNWYQRKQGKSPQLLIFGATNLADGMSSRFSGSGSGRQYSLKISSLHPDDVATYYCQNVLRSPFTFGSGTKLEI | s⁻¹ | 2.36e-05 |
| humanized antibody 8D2H2L17 (antibody, V domains shown) VH: EVQLVESGGGLVQPGGSMRLSCAASGFTFSDNWMNWVRQAPGKGLEWLAQIRNKPYNYETYYSASVKGRFTISRDDSKNSVYLQMNSLKTEDTGVYYCTAQFAYWGQGTLVTVSS VL: DIQMTQSPSSLSASVGDRVTITCRTSENIYGGLNWYQRKPGKSPKLLIYGATNLASGVSSRFSGSGSGTDYTLTISSLQPEDVATYYCQNVLSSRPGFGSGTKLEIK | s⁻¹ | 0.000352 |

Note: attention shifts to another entry.
Ask: Form field: reported koff of humanized antibody 8D2H2L2 (antibody, V domains shown, also called 8D2H2L2(20150327); 8D2H2L2(20140422)) VH: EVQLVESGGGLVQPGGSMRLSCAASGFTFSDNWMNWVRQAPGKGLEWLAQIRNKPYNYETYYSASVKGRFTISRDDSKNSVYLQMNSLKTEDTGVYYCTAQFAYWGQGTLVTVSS VL: DIQMTQSPSSLSASVGDRVTITCRTSENIYGGLNWYQRKPGKSPKLLIYGATNLASGVSSRFSGSGSGTDYTLTISSLQPEDVATYYCQNVLRSPFTFGSGTKLEIK
Result: 0.000388
